Molecular target: CDK8 (Homo sapiens, UniProt P49336)
Sequence (P49336 whole entry): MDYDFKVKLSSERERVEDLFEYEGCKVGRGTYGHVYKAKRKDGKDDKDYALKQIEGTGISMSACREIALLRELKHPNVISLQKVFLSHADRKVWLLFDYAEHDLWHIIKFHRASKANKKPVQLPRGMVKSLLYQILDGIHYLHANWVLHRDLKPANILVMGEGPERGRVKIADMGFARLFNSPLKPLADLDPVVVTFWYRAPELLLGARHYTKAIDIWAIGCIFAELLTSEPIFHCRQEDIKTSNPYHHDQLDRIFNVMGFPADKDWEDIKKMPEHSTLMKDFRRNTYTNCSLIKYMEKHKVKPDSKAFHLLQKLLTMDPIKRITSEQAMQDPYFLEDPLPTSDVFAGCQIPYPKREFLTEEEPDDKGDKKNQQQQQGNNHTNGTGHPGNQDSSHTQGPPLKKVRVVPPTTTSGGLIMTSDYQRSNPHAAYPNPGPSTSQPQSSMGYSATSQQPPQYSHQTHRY
Sequence (P24863 whole entry partner): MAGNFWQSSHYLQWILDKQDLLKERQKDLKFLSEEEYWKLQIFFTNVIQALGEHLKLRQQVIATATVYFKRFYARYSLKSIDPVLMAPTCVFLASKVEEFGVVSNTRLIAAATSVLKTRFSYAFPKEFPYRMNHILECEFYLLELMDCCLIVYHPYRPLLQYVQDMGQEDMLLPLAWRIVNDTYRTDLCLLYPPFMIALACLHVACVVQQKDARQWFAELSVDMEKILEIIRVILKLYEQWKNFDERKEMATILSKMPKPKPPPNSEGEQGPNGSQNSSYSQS
Sequence (Q93074 whole entry partner): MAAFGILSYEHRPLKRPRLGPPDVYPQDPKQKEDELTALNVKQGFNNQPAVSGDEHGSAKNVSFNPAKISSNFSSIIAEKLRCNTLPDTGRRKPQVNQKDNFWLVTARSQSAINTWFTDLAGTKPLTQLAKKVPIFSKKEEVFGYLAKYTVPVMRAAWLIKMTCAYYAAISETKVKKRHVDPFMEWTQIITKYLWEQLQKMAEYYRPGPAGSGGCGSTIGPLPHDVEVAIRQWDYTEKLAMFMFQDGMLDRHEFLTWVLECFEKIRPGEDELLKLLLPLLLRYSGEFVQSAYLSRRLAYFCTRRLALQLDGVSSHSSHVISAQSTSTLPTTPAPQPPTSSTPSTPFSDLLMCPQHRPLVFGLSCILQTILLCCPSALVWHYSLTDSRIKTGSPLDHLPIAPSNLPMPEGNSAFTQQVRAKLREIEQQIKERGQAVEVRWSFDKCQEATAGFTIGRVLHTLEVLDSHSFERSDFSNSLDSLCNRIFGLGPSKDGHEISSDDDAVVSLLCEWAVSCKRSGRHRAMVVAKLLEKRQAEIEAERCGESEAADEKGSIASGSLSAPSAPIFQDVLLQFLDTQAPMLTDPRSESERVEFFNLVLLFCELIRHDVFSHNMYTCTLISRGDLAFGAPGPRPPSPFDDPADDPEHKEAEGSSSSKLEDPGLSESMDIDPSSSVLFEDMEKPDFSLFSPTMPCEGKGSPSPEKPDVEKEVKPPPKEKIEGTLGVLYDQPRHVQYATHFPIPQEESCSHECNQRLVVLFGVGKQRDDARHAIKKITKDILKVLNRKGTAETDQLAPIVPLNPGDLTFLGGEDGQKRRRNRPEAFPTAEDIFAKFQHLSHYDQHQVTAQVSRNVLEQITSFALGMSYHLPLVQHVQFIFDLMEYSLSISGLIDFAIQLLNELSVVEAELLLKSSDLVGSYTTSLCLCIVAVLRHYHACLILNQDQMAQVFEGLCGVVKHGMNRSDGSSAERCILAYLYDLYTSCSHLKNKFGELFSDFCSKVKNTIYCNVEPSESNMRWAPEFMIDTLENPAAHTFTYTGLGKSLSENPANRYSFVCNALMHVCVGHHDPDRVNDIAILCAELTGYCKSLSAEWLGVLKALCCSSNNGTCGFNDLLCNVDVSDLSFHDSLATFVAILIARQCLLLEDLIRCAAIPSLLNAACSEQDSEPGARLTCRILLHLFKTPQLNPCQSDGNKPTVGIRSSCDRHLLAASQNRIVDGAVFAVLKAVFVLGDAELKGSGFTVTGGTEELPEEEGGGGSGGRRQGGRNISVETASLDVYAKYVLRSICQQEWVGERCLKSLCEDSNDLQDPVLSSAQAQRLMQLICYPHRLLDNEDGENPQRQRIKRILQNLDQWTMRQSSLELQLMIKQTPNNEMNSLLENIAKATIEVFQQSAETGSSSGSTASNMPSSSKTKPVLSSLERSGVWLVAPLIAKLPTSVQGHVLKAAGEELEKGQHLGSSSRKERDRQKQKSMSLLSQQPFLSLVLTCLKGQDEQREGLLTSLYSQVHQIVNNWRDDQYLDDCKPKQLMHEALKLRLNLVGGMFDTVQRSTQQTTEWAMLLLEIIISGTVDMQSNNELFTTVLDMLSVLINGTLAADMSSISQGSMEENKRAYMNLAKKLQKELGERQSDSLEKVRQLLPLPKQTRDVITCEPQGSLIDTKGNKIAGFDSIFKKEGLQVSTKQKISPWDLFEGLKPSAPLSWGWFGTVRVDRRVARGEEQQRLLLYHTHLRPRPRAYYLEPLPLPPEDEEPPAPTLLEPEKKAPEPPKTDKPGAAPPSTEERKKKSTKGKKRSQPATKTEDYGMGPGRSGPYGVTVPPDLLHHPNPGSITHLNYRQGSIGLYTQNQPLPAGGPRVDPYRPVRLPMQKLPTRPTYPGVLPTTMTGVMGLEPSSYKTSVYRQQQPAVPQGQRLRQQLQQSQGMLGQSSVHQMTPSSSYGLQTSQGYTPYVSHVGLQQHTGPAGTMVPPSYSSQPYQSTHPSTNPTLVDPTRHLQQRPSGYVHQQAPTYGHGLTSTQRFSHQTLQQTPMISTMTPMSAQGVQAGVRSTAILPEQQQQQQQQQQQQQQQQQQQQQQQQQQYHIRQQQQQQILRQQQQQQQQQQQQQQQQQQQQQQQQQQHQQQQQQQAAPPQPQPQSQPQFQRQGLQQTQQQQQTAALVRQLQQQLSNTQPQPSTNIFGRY
Endpoint Label: Kd (nM)
One number for each entry, in nM.

IN: # get_value(readout='Kd', item= "CCCN1CCN(c2ccc(-c3cncc(Cl)c3N3CCC4(CCNC4=O)CC3)cc2)CC1" )
OUT: 36

###

Biological target: AXIN2
Assay: SILAC displacement
Format: binding, human
Settings: apparent; LS174T-L5 lysate
Endpoint Label: Kd

IN: I am curious: what Kd value has been reported for "CCCN1CCN(c2ccc(-c3cncc(Cl)c3N3CCC4(CCNC4=O)CC3)cc2)CC1" ?
OUT: ~1000 nM

###

Experiment: Plasma and tumour concentrations in SW620 xenograft mice
Assay type: in vivo
Details: female, NCr athymic, mouse, tumour, po, 70 mg/kg
Endpoint Label: concentration at 2 h (nM)
Answers are plain numbers, in nM.

IN: Give its concentration at 2 h value. Item: Cn1cc(-c2ccc(-c3cncc(Cl)c3N3CCC4(CCNC4=O)CC3)cc2)cn1 [Compound 1, CCT251545]
OUT: 1600
